# ASSAY OVERVIEW: P. aeruginosa biofilm formation inhibitors, primary screen, PAO1 strain, BacTiter-Glo luminescence, LB-PBS (AID 1144)
# CONDITION PARAMETERS: 12 h, higher = more signal
Listing: z-score of selected compounds
METRIC: z-score

{"COMPOUND": "COc1ccc(C(O)C2C=CC3C(=O)NC(=O)C3N2Nc2ccccn2)cc1 (stereo not drawn)", "READING": -0.727}
{"COMPOUND": "C=CCN1C(=O)[C@@]2(O[C@@H](CCO)[C@H]([Si](C)(C)c3ccc(OC)cc3)[C@H]2C)c2cc(NC(=O)c3ccc(OC)cc3)ccc21", "READING": -0.39}
{"COMPOUND": "CC(C)(C)OC(=O)CC[C@@]1(C(=O)NCCN2CCOCC2)N=C(c2ccc(OCCCO)cc2)O[C@@H]1c1ccccc1N=[N+]=[N-]", "READING": 1.45}
{"COMPOUND": "C=C(CCCC)/C(=C/C[C@@H](OC(C)=O)c1ccccc1OCCO)c1cnc2ccccc2c1", "READING": -0.131}
{"COMPOUND": "COc1ccc(C(O)C2C=CC3C(=O)NC(=O)C3N2Nc2ccccn2)c2ccccc12 (stereo not drawn)", "READING": -0.507}
{"COMPOUND": "CN1C(=O)C2C=CC(C(O)C3=C[C@H]4C[C@@H](C3)C4(C)C)N(Nc3ccccc3)C2C1=O (stereo partly drawn)", "READING": -0.79}
{"COMPOUND": "CN(C)C(=O)[C@@]1(Cc2ccccc2)N=C(c2ccc(OCCCO)cc2)O[C@H]1c1ccccc1N=[N+]=[N-]", "READING": -1.05}
{"COMPOUND": "C=CCNC(=O)[C@H]1[C@@H]2C(=O)O[C@@H](c3ccccc3)[C@@H](c3ccccc3)N2[C@@H](c2ccc(OCCO)cc2)[C@]12C(=O)Nc1ccc(C#CC3=CCCCC3)cc12", "READING": 0.334}

---

# System: Neuregulin-1 EGF-like domain
# ASSAY OVERVIEW: binders of neuregulin-1 EGF-like domain, primary screen, biochemical, small-molecule microarray, 635 nm fluorescence (AID 1081);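 note: binding of the protein to compounds printed on small-molecule microarray slides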
# CONDITION PARAMETERS: small-molecule microarray binding, higher = more signal
Listing: composite z-score of selected compounds

{"COMPOUND": "O=C1c2ccccc2[C@](Cc2ccccc2I)(C(=O)NC2CC2)[C@H](c2ccc(CO)cc2)N1C1CCCCC1", "composite z-score": 1.41}
{"COMPOUND": "C=CCN(Cc1ccccc1)C(=O)C(c1cccs1)N(CCOCCO)C(=O)/C=C\\C(=O)O (centres undefined)", "composite z-score": -0.421}
{"COMPOUND": "COC(=O)C(CC#Cc1ccc2c(c1)[C@]1(C(=O)N2)[C@H](C(=O)O)[C@H]2C(=O)O[C@H](c3ccccc3)[C@H](c3ccccc3)N2[C@@H]1c1ccc(O)cc1)C(=O)OC", "composite z-score": 1.23}
{"COMPOUND": "C=C(/C(=C/C[C@@H](OC(C)=O)c1ccc(OCCO)cc1)c1cnc2ccccc2c1)C(C)C", "composite z-score": 0.946}

---

# TESTED TARGET: Albumin (Bos taurus) (UniProt P02769)
# Sequence (P02769 whole entry, looked up): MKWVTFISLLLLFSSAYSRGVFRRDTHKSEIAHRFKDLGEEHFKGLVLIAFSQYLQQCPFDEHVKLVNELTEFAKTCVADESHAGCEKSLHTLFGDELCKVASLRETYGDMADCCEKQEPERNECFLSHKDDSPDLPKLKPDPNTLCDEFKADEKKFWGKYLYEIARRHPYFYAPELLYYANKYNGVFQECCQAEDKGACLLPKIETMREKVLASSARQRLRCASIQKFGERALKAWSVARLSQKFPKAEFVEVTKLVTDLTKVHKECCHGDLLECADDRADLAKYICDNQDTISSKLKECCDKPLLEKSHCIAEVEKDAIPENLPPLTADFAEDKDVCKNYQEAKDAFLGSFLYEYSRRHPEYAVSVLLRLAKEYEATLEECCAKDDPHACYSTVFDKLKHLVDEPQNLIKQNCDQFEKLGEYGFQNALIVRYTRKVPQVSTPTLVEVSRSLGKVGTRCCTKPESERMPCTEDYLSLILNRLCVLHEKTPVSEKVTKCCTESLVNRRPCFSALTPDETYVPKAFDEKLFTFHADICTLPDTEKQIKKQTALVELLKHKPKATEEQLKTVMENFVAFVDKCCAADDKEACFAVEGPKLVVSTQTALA
# ASSAY OVERVIEW: bovine serum albumin binders on microarray, profiling panel, artefact control for SMM control protein annotation, biochemical, small-molecule microarray, Alexa647 label, 635/667 nm fluorescence (AID 1118);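 note: score merges 667 nm emission intensity and signal-to-noise per printed compound spot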
# CONDITION PARAMETERS: BSA-A647 binding, fluorescence 635 nm, higher = more signal
So basically, the class depends on measured composite z-score, and the ranges are band 1 (below -0.01), band 2 (-0.01 to below 0.6), band 3 (0.6 or more)

{"COMPOUND": "CC(C)OC(=O)C=C1C[C@@H](c2ccccc2C(F)(F)F)O[C@@H](c2ccccc2C(F)(F)F)O1", "CLASS LABEL": "band 3"}
{"COMPOUND": "COCC(=C=CC[C@@H](O)c1ccccc1OCCO)C[C@@H](O)c1cc(Cl)cc(Cl)c1O", "CLASS LABEL": "band 3"}
{"COMPOUND": "COc1ccc([Si](C)(C)[C@H]2[C@H](CCO)O[C@@]3(C(=O)N(C)c4c(Br)cc(C)cc43)[C@@H]2C)cc1", "CLASS LABEL": "band 1"}
{"COMPOUND": "C#CCNC(=O)[C@H](Cc1ccccc1)NC(=O)CCC(=O)O", "CLASS LABEL": "band 1"}
{"COMPOUND": "CC(C)C[C@H]1NC(=O)[C@@]23C(=O)N[C@@H](Cc4ccccc4)C2[C@H](C)[C@@]2(C)O[C@H]2C3/C=C/C/C=C\\CNC(=O)[C@H](Cc2ccccc2)NC1=O (some centres undefined)", "CLASS LABEL": "band 1"}
{"COMPOUND": "COCCOC(=O)N1C(=O)[C@@]2(c3cc(C#Cc4ccc(OC)cc4)ccc31)[C@H](C(N)=O)[C@H]1C(=O)O[C@H](c3ccccc3)[C@H](c3ccccc3)N1[C@@H]2c1ccccc1OCCO", "CLASS LABEL": "band 3"}
{"COMPOUND": "CN1C(=O)C2C=CC(C(O)c3ccc(I)cc3)N(N3CCCCC3)C2C1=O (centres undefined)", "CLASS LABEL": "band 3"}
{"COMPOUND": "CN(C)C(=O)[C@@]1(Cc2ccccc2)N=C(c2ccc(OCCCO)cc2)O[C@H]1c1ccccc1N=[N+]=[N-]", "CLASS LABEL": "band 3"}
{"COMPOUND": "COCCCN1C(=O)[C@@]2(Cc3ccccc31)c1ccccc1C(=O)N(Cc1ccccc1C(F)(F)F)[C@H]2c1ccc(CO)cc1", "CLASS LABEL": "band 1"}
{"COMPOUND": "C=CCN1C(=O)[C@@]2(O[C@@H](CCO)[C@H]([Si](C)(C)c3ccc(OC)cc3)[C@H]2C)c2cc(NC(=O)c3ccc(OC)cc3)ccc21", "CLASS LABEL": "band 2"}
{"COMPOUND": "COc1cc2c(cc1OC)CN(C(=O)[C@@H]1[C@H]3C(=O)O[C@H](c4ccccc4)[C@H](c4ccccc4)N3[C@H](c3ccc(O)cc3)[C@@]13C(=O)Nc1ccc(C#CC4(O)CCCCCC4)cc13)CC2", "CLASS LABEL": "band 1"}
{"COMPOUND": "COc1ccc([Si](C)(C)[C@H]2[C@H](CCO)O[C@@]3(C(=O)N(Cc4ccc(N5C(=O)COc6ccccc65)cc4)c4ccccc43)[C@@H]2C)cc1", "CLASS LABEL": "band 2"}

---

# TESTED TARGET: Torsin-1A-interacting protein 2 (Homo sapiens)
# ASSAY OVERVIEW: LULL1 binders on small-molecule microarray, primary screen, cell lysate, human LULL1 lysate, 635/667 nm fluorescence (AID 1092);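 note: probe is lysate of COS7 cells overexpressing human LULL1; score merges per-feature 667 nm fluorescence with signal-to-noise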
# CONDITION PARAMETERS: hLULL1 lysate binding, 635 nm fluorescence, higher = more signal
Listing: composite z-score of selected compounds
METRIC: composite z-score

{"COMPOUND": "COc1cc2c(cc1OC)CN(C(=O)[C@H]1[C@@H]3C(=O)O[C@@H](c4ccccc4)[C@@H](c4ccccc4)N3[C@@H](c3ccc(O)cc3)[C@]13C(=O)Nc1ccc(C#CC4=CCCCC4)cc13)CC2", "READING": 2.83}
{"COMPOUND": "CN1C(=O)C2C=CC(C(O)Cc3ccccc3)N(Nc3ccccc3)C2C1=O (centres undefined)", "READING": 3.43}
{"COMPOUND": "O=C1O[C@H](c2ccccc2)[C@H](c2ccccc2)N2[C@H]1[C@@H](C(=O)NC[C@H](O)c1ccccc1)[C@]1(C(=O)Nc3ccccc31)[C@H]2c1ccc(OCCO)cc1", "READING": 2.39}
{"COMPOUND": "COC(=O)[C@@]1(Cc2ccc(F)cc2)[C@H]2c3cc(C(=O)N(C)C)n(CC4CC4)c3C[C@H]2CN1C(=O)c1ccccc1", "READING": 3.57}
{"COMPOUND": "O=C1O[C@@H](c2ccccc2)[C@@H](c2ccccc2)N2[C@@H](c3ccc(OCCO)cc3)[C@]3(C(=O)Nc4ccccc43)[C@@H](C(=O)NC[C@H](O)c3ccccc3)[C@H]12", "READING": 2.44}
{"COMPOUND": "CN1C(=O)C2C=CC(C(O)c3cc(C(F)(F)F)cc(C(F)(F)F)c3)N(N3CCCCC3)C2C1=O (centres undefined)", "READING": 2.65}
{"COMPOUND": "CC(C)c1ccc(NN2C(C(O)c3cc(C(F)(F)F)cc(C(F)(F)F)c3)C=CC3C(=O)N(c4ccccc4)C(=O)C32)cc1 (centres undefined)", "READING": 3.22}
{"COMPOUND": "O=C1C2C=CC(C(O)c3c(F)cccc3Cl)N(Nc3ccccc3)C2C(=O)N1c1ccccc1 (centres undefined)", "READING": 3.43}
{"COMPOUND": "CCCC=C(CCC)[C@@H](NS(=O)(=O)c1cccs1)c1ccc(C(=O)OC)cc1", "READING": 3.43}
{"COMPOUND": "Cc1ccc(S[C@]2(C(=O)NCC(C)C)CC(=O)N(Cc3cc(C(F)(F)F)cc(C(F)(F)F)c3)[C@@H]2c2ccc(CO)cc2I)cc1", "READING": 0.736}
{"COMPOUND": "C=CCOC(=O)[C@@H]1[C@H]2C(=O)O[C@H](c3ccccc3)[C@H](c3ccccc3)N2[C@H](c2ccc(OCCOC(=O)[C@@H]3C[C@@H]4C(=O)N[C@@H](CCCC[N+](C)(C)C)C(=O)N4[C@@H]3c3cccc(OCCO)c3)cc2)[C@@]12C(=O)Nc1ccc(I)cc12", "READING": 2.94}
{"COMPOUND": "COc1ccc(C(=O)Nc2ccc(CN3C(=O)[C@@]4(O[C@@H](CC(=O)N5CCC[C@H]5CO)[C@H]([Si](C)(C)c5ccc(OC)cc5)[C@H]4C)c4ccccc43)cc2)cc1", "READING": 2.07}
{"COMPOUND": "O=C(NCc1ccccc1)[C@@]1(CCS(=O)(=O)c2ccccc2)N=C(c2ccc(OCCCO)cc2)O[C@H]1c1ccccc1", "READING": 3.56}
{"COMPOUND": "COc1ccc(C(O)C2C=CC3C(=O)N(c4ccccc4)C(=O)C3N2Nc2ccc(C(C)C)cc2)cc1OCc1ccccc1 (centres undefined)", "READING": 2.97}
{"COMPOUND": "Cc1ccc(C(C)CC(O)C2C=CC3C(=O)N(C)C(=O)C3N2NC(=O)OC(C)(C)C)o1 (centres undefined)", "READING": 3}
{"COMPOUND": "CCCCC(O)C1C=CC2C(=O)N(c3ccccc3)C(=O)C2N1Nc1ccccc1F (centres undefined)", "READING": 2.99}
{"COMPOUND": "COc1ccc(CCNC(=O)[C@@]2(C)c3ccccc3C(=O)N(Cc3cc(F)cc(C(F)(F)F)c3)[C@H]2c2ccc(CO)cc2)cc1", "READING": 2.3}
{"COMPOUND": "Cc1ccc(C(C)CC(O)C2C=CC3C(=O)N(c4ccccc4)C(=O)C3N2Nc2ccc([N+](=O)[O-])cc2)o1 (centres undefined)", "READING": 3.1}
{"COMPOUND": "[N-]=[N+]=NCc1ccccc1C[C@]1(C(=O)O)N=C(c2ccc(OCCCO)cc2)O[C@H]1c1ccccc1N=[N+]=[N-]", "READING": 3.21}
{"COMPOUND": "Cc1ccc(S[C@]2(C(=O)NCCN3CCOCC3)CC(=O)N(Cc3ccccc3)[C@@H]2c2ccc(CO)cc2I)cc1", "READING": 2.07}
{"COMPOUND": "COc1ccc([Si](C)(C)[C@@H]2[C@@H](CC(=O)N3Cc4ccccc4C[C@H]3CO)O[C@]3(C(=O)N(C)c4c(Br)cc(C)cc43)[C@H]2C)cc1", "READING": 1.84}
{"COMPOUND": "CC(C)N1C(=O)c2ccccc2[C@](C)(C(=O)NCc2ccccc2)[C@@H]1c1ccc(CO)cc1", "READING": 1.91}
{"COMPOUND": "COc1ccc([Si](C)(C)[C@H]2[C@H](CCO)O[C@@]3(C(=O)N(C)c4c(Br)cc(C)cc43)[C@@H]2C)cc1", "READING": 1.04}
{"COMPOUND": "C=C(CCCC)C(=O)CC[C@@H](OC(=O)c1cccnc1)c1ccc(CO)o1", "READING": 1.45}
{"COMPOUND": "CC(C)N1C(=O)[C@@]2(Cc3ccccc31)c1ccccc1C(=O)N(C1CCCCC1)[C@H]2c1ccc(CO)cc1", "READING": 2.01}
{"COMPOUND": "C#CCN(CC1=CCCCC1)[C@H](c1ccccc1Br)[C@@H](O)Cc1ccccc1", "READING": 1.04}
{"COMPOUND": "[N-]=[N+]=Nc1ccccc1C[C@]1(C(N)=O)N=C(c2ccc(OCCCO)cc2)O[C@H]1c1ccccc1", "READING": 3.19}
{"COMPOUND": "CC(C)(C)OC(=O)CC[C@@]1(C(=O)NCCN2CCOCC2)N=C(c2ccc(OCCCO)cc2)O[C@@H]1c1ccccc1N=[N+]=[N-]", "READING": 3.09}
{"COMPOUND": "[N-]=[N+]=NCc1ccccc1[C@@H]1OC(c2ccc(OCCCO)cc2)=N[C@]1(CCS(=O)(=O)c1ccccc1)C(=O)NCc1ccccc1", "READING": 3.25}

Cited source for all entries: PubChem BioAssay
